Biological target: cloned human or rodent CNS receptors, channels, and transporters (PDSP panel) (Homo sapiens)
Construct: expressed in transfected cells
Sequence (P46098 24-478): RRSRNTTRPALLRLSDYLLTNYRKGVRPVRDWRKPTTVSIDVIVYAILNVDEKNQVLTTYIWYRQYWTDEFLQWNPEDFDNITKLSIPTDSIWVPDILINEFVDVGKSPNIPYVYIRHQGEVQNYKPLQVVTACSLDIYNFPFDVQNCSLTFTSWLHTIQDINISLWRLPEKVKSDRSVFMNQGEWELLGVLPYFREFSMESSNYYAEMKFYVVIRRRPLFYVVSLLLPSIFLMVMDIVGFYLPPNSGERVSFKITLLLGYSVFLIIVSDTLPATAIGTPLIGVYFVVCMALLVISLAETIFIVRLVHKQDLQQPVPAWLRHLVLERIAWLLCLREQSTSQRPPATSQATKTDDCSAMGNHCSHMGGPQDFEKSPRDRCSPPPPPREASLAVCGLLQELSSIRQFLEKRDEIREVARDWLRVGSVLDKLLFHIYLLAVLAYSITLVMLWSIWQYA
Assay: PDSP GPCR panel primary binding assays at 10 μM
Details: 5-HT3; primary assay, mean inhibition
Measured metric: Mean % (%)
Write the number in % without appending the unit.

The cases that follow already have their Mean % on record.
1. O=C(NC1CC1)C(=O)C(Cc1ccccc1)NC(=O)[C@H]1CCC(=O)N1Cc1ccccc1 (stereo partly shown) [UNC10302676A, ABT-957 (Alicapistat)] = -3.28
2. CC(=O)N1CCC(NC(=O)NC23CC4CC(CC(C4)C2)C3)CC1 [UNC10302683A, AR9281] = 13.87
3. CNc1nc(C)nc(N[C@H]2CCC[C@@H](C(=O)NCc3ccc(C#N)cc3C(F)(F)F)C2)n1 [UNC10302679A, GSK2256294A] = 8.2

In the following, a different compound is considered.
Identify measured Mean % associated with CCC(=O)N1CCC(NC(=O)Nc2ccc(OC(F)(F)F)cc2)CC1 [UNC10302681A, TPPU]
17.23
